Reference source: patent US20150004189A1

Molecular target: T1, HLA-DP DPB1*0401 (human)
T1 chain 1: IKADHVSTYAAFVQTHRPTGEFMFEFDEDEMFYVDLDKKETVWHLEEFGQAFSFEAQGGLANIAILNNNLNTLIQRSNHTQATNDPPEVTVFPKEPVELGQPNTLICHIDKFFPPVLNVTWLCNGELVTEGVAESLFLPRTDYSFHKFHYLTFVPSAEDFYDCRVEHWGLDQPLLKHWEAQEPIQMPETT
T1 chain 2: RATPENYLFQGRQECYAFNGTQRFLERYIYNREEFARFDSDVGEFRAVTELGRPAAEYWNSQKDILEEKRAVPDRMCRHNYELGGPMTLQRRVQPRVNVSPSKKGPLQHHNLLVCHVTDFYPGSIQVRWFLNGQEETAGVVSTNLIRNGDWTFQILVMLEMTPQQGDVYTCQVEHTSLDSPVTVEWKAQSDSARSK
Assay: inhibition of radiolabeled peptide binding to purified HLA-DP
measure: IC50

Solved entries:
FDAFVAYHIGARIVS [Der p 4 (482-496) peptide 3324.0971]; 71 nM
EHRWREIYNMVKFRM [Der p 4 (381-395) peptide 3324.0986]; 549 nM
RTLNKIVYIKPAKNI [Bet v 6 (206-220) peptide 3324.0387]; 41 nM
EIYNMVKFRMIAGQE [Der p 4 (386-400) peptide 3324.0978]; 122 nM

For the binder PSVIPAARLFKAFIL [Aln g 1 (11-25) peptide 3324.0004] , give its reported IC50. 7280 nM

For LEKISNEIKIVATPD [Bet v 1 (96-110) peptide 3324.0353] , write its IC50. 6820 nM

Give IC50 for YVGHDEFDAFVAYHI [Der p 4 (476-490) peptide 3324.0975] 273 nM
